Reported ID50 values follow for various molecules
# Test system: Leucine-rich repeat serine/threonine-protein kinase 2 (Homo sapiens), Q5S007 [G2019S]
# Sequence (Q5S007 whole entry G2019S): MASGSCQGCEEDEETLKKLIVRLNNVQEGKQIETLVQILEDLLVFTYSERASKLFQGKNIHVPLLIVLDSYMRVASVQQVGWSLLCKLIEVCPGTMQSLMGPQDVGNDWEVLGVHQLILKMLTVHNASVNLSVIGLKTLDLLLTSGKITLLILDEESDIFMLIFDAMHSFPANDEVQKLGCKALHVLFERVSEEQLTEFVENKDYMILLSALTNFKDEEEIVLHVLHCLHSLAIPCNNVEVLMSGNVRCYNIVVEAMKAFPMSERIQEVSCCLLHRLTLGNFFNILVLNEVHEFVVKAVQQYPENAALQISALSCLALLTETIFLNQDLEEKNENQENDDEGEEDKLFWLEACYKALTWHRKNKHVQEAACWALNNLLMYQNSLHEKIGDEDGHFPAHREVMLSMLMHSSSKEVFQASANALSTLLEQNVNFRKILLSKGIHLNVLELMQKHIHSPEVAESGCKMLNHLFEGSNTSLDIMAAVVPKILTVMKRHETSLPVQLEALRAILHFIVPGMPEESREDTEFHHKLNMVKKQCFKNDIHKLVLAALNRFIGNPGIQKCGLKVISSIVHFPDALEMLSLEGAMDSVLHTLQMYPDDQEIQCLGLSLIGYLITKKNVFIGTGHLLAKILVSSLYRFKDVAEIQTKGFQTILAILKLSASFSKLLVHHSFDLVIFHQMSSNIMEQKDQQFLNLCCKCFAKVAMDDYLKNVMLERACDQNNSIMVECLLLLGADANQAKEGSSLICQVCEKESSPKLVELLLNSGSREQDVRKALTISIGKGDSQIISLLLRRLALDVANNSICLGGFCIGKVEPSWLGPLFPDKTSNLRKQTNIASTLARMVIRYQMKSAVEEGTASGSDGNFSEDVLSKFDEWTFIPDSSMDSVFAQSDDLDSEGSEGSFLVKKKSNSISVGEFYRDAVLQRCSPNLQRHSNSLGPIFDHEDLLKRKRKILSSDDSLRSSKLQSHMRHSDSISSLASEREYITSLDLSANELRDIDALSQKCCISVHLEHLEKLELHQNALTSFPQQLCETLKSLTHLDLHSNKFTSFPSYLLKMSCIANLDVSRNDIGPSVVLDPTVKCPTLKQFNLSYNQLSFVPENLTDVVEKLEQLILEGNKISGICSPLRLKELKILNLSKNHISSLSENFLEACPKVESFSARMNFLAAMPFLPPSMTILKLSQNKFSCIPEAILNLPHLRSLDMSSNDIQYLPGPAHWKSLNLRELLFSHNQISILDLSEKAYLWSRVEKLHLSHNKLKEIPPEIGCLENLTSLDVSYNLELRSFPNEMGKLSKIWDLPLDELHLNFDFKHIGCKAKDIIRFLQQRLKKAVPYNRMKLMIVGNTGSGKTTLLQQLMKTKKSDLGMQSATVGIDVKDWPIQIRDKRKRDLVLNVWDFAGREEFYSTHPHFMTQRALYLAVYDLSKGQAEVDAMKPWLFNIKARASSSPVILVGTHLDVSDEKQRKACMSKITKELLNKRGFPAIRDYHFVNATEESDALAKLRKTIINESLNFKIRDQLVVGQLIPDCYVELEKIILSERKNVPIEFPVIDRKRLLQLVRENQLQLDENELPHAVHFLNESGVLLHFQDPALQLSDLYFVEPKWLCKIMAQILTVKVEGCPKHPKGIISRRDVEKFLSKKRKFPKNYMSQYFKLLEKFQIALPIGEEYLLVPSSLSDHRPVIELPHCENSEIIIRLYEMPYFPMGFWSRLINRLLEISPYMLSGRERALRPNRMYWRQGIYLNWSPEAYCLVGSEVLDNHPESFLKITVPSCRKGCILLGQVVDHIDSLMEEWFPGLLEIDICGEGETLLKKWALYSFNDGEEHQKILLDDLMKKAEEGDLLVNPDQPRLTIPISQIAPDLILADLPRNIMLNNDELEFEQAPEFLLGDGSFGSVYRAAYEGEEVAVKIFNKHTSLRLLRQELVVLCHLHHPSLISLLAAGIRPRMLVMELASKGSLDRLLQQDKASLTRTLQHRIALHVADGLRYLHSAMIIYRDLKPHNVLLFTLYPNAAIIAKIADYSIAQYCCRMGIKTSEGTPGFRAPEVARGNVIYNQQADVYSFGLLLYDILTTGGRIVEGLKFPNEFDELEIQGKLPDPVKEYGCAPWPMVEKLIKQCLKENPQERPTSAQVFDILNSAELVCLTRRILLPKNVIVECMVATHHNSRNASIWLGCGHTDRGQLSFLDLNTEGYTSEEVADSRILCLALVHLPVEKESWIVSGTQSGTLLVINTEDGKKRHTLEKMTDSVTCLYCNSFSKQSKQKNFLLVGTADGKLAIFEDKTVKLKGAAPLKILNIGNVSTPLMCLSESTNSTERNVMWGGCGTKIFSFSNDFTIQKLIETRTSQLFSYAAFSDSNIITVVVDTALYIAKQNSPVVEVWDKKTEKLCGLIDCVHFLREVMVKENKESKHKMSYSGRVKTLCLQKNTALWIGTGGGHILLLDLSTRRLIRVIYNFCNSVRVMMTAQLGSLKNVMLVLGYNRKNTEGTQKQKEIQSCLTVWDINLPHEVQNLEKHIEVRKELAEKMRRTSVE
# method.summary: Inhibition of human recombinant GST-tagged LRRK2 G2019S mutant (970 residues) expressed in baculovirus expression system using LRRKtide as substrate incubated for 10 mins by scintillation counting method in presence of [gamma33P]ATP
Please don't drop the unit; write it after the number.

Some solved entries appear below for comparison.
Cc1cc(N/N=C/c2ccc(O)cc2)nc2ccccc12 ... 1.3 µM
COc1ccc(/C=N/Nc2cc(C)c3ccccc3n2)cc1 ... 0.9 µM
COc1ccc(-c2nnc3c(NCCN4CCOCC4)cccn23)cc1OC ... 9.1 µM

# input for lookup
Input: Answer with the recorded ID50 of "C/C(=N\Nc1ccc2ccccc2n1)c1ccccc1O" only.
Output: 4.8 µM

====

# tgt: Leucine-rich repeat serine/threonine-protein kinase 2 (Homo sapiens)
# method.summary: Inhibition of human recombinant N-terminal GST-tagged LRRK2 (968 residues) expressed in baculovirus infected sf9 cells using LRRKtide as substrate at 100 uM incubated for 10 mins by scintillation counting method in presence of [gamma33P]ATP
The source made the active and inactive calls. No cut-off for these calls is given here.
// one of Y for active, N for inactive, no free text

Study these solved cases before continuing.
COc1ccc(/C=N/Nc2nc3c(c(-c4ccccc4)c2C#N)CCCC3)cc1 ... Y
COc1ccc(-c2nnc3c(NCCN4CCOCC4)cccn23)cc1OC ... Y
COc1ccc(/C=N/Nc2nc(C)cc(C)c2C#N)cc1 ... Y
COc1ccc(/C=N/Nc2ncccc2Cl)cc1OC ... Y
Cc1cc(N/N=C/c2ccc(OC(=O)c3ccc(N4CCN(C)CC4)cc3)cc2)nc2ccccc12 ... N

Input: Which result was noted for this compound in the test: "COc1ccc(/C=N/Nc2ccccn2)cc1"
Output: Y

====

# tgt: CDK9/Cyclin K (Homo sapiens) (UniProt P50750+O75909)
# method.summary: Inhibition of full length human recombinant N-terminal GST-tagged CDK9/Cyclin K expressed in baculovirus infected sf9 cells using CDKtide as substrate at 100 uM incubated for 10 mins by scintillation counting method relative to control
measured.endpoint: inhibition (%)
API: value field is a number in %; no unit string.

Input: Specify inhibition for "C/C(=N\Nc1ccc2ccccc2n1)c1ccccc1O" and stop.
Output: 2

Input: Return the recorded inhibition value; entry: "COc1ccc(/C=N/Nc2cc(C)c3ccccc3n2)cc1"
Output: 53

Input: Recall and state the measured inhibition for "Cc1cc(N/N=C/c2ccc(O)cc2)nc2ccccc12" .
Output: 24

Input: Input "COc1ccc(-c2nnc3c(NCCN4CCOCC4)cccn23)cc1OC" , output reported inhibition.
Output: 38

====

# tgt: Receptor-type tyrosine-protein kinase FLT3 (Homo sapiens)
# method.summary: Inhibition of human recombinant N-terminal GST-His6-tagged FLT3 (R571-S993 residues) expressed in baculovirus infected sf9 cells using KVEKIGEGTYGVVYK as substrate at 100 uM incubated for 10 mins by scintillation counting method relative to control
measured.endpoint: inhibition (%)
Respond with the bare value in %.

Solved cases below.
Cc1cc(N/N=C/c2ccc(O)cc2)nc2ccccc12 ... 62
COc1ccc(/C=N/Nc2cc(C)c3ccccc3n2)cc1 ... 50
C/C(=N\Nc1ccc2ccccc2n1)c1ccccc1O ... 3

Input: Give a short answer stating reported inhibition for "COc1ccc(-c2nnc3c(NCCN4CCOCC4)cccn23)cc1OC" .
Output: 0
